- ASSAYED SYSTEM: mu opiate receptor (MOR) (Rattus norvegicus, UniProt P33535)
- Construct: from tissue; host or cells: striatum (membrane preparation)
- Sequence (P33535 whole entry): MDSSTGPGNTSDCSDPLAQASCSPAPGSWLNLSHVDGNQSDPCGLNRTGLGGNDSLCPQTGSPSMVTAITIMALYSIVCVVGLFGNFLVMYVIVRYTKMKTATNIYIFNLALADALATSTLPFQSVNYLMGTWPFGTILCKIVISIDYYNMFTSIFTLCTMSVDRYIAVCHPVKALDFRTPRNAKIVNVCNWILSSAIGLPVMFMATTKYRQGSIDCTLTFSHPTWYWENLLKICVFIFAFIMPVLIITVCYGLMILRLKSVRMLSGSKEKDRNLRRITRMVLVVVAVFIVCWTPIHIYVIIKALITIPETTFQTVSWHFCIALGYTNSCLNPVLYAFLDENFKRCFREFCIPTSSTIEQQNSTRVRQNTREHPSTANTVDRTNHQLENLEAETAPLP
- ASSAY NOTES: MOR agonist activity using [35S]GTPgS binding assay in striatal membranes
- Format: biochemical
- MEASUREMENT CONDITIONS: 1 μM compound as agonist; Series C-1 table
Param threshold (300%) applies to MOR agonist activity ([35S]GTPgS binding to Gao); output criterion met when value >= threshold, criterion not met when value < threshold.

| COMPOUND | CLASS ASSIGNMENT |
| --- | --- |
| O=C(c1ccc([N+](=O)[O-])cc1)N1CCC2(CC1)OCCN2S(=O)(=O)c1ccc([N+](=O)[O-])cc1 [Compound C0033] | criterion not met |
| O=S(=O)(c1ccc(C(F)(F)F)cc1Br)N1CCC2(CC1)OCCN2S(=O)(=O)c1ccc(C(F)(F)F)cc1Br | criterion met |
| COc1ccc(NC(=O)N2CCC3(CC2)OCCN3S(=O)(=O)c2ccc(OC)cc2)cc1 | criterion not met |
| CS(=O)(=O)c1ccc(S(=O)(=O)N2CCC3(CC2)OCCN3S(=O)(=O)c2ccc(S(C)(=O)=O)cc2)cc1 | criterion not met |
| CC(O)c1ccc(S(=O)(=O)N2CCC3(CC2)OCCN3S(=O)(=O)c2ccc(C(C)O)cc2)cc1 (stereo not shown) | criterion not met |
| CC(=O)c1ccc(S(=O)(=O)N2CCC3(CC2)NC(=O)C(Cc2cnc[nH]2)N3S(=O)(=O)c2ccc(C(C)=O)cc2)cc1 (stereo not shown) [Compound C0084M] | criterion not met |

Value source: patent US20220233512A1
